- Test system: NCI-H358
- test-protocol: relative viability (nuclei count vs DMSO), 5 days (fraction); higher = more cells survive
- settings: first compound 4 µM

[
  {
    "compound": "C[C@@H]1CN(CC(=O)Nc2ccc3c(c2)Cc2cccc(-c4cc(=O)cc(N5CCOCC5)o4)c2S3)C[C@H](C)O1 + Cc1cc(Nc2cc(N3CCN(C)CC3)nc(Sc3ccc(NC(=O)C4CC4)cc3)n2)n[nH]1 [Tozasertib] (partner 0.1 µM)",
    "relative viability": 0.114
  },
  {
    "compound": "COc1cc(N2CCC(C(N)=O)CC2)ccc1Nc1nc(N)c(Cl)c(Nc2ccccc2S(=O)(=O)C(C)C)n1 [HG-5-88-01] + O=C(c1cc(Cc2n[nH]c(=O)c3ccccc23)ccc1F)N1CCN(C(=O)C2CC2)CC1 [Olaparib] (partner 8 µM)",
    "relative viability": 0.466
  },
  {
    "compound": "C[C@@H]1CN(CC(=O)Nc2ccc3c(c2)Cc2cccc(-c4cc(=O)cc(N5CCOCC5)o4)c2S3)C[C@H](C)O1 + CC(=O)c1c(C)c2cnc(Nc3ccc(N4CCNCC4)cn3)nc2n(C2CCCC2)c1=O [Palbociclib] (partner 0.5 µM)",
    "relative viability": 0.127
  },
  {
    "compound": "COc1cc(N2CCC(C(N)=O)CC2)ccc1Nc1nc(N)c(Cl)c(Nc2ccccc2S(=O)(=O)C(C)C)n1 [HG-5-88-01] + CC(=O)Nc1cccc(-n2c(=O)n(C3CC3)c(=O)c3c(Nc4ccc(I)cc4F)n(C)c(=O)c(C)c32)c1 [Trametinib] (partner 0.02 µM)",
    "relative viability": 0.105
  }
]

###

Each entry below carries its reported relative viability.
- Test system: NCI-H2009
- test-protocol: relative viability (nuclei count vs DMSO), 5 days (fraction); higher = more cells survive
- settings: first compound 0.08 µM

[
  {
    "compound": "CCCCCCCCCCCC1=C(O)C(=O)C=C(O)C1=O [Embelin] + COc1cccc2cc(-c3nc([C@H]4CC[C@H](C(=O)O)CC4)n4ncnc(N)c34)[nH]c12 [OSI-027] (partner 0.5 µM)",
    "relative viability": 0.728
  },
  {
    "compound": "CCCCCCCCCCCC1=C(O)C(=O)C=C(O)C1=O [Embelin] + O=C(CCCCCCC(=O)Nc1ccccc1)NO [Vorinostat] (partner 1 µM)",
    "relative viability": 0.748
  },
  {
    "compound": "CCCCCCCCCCCC1=C(O)C(=O)C=C(O)C1=O [Embelin] + CC1(C)CCC(c2ccc(Cl)cc2)=C(CN2CCN(c3ccc(C(=O)NS(=O)(=O)c4ccc(N[C@H](CCN5CCOCC5)CSc5ccccc5)c(S(=O)(=O)C(F)(F)F)c4)cc3)CC2)C1 [Navitoclax] (partner 0.5 µM)",
    "relative viability": 1.23
  },
  {
    "compound": "CCCCCCCCCCCC1=C(O)C(=O)C=C(O)C1=O [Embelin] + CC(C)C[C@H](NC(=O)[C@H](Cc1ccccc1)NC(=O)c1cnccn1)B(O)O [Bortezomib] (partner 0.002 µM)",
    "relative viability": 1.07
  }
]

###

- System: Calu-6
- test-protocol: relative viability (nuclei count vs DMSO), 5 days (fraction); higher = more cells survive
- settings: first compound 0.3162 µM
measured-parameter: relative viability

[
  {
    "compound": "CC(C)Oc1cc(Nc2nc(N[C@@H](C)c3ccc(F)cn3)ncc2Cl)n[nH]1 [AZ23] + Cc1nc(NC(=O)N2CCC[C@H]2C(N)=O)sc1-c1ccnc(C(C)(C)C(F)(F)F)c1 [Alpelisib] (partner 2 µM)",
    "target-or-test-system": "Calu-6",
    "endpoint-result": 1.11
  },
  {
    "compound": "CC(C)Oc1cc(Nc2nc(N[C@@H](C)c3ccc(F)cn3)ncc2Cl)n[nH]1 [AZ23] + CS(=O)(=O)N1CCN(Cc2cc3nc(-c4cccc5[nH]ncc45)nc(N4CCOCC4)c3s2)CC1 [Pictilisib] (partner 1 µM)",
    "target-or-test-system": "Calu-6",
    "endpoint-result": 0.986
  },
  {
    "compound": "CC(C)Oc1cc(Nc2nc(N[C@@H](C)c3ccc(F)cn3)ncc2Cl)n[nH]1 [AZ23] + CC1(C)CCC(c2ccc(Cl)cc2)=C(CN2CCN(c3ccc(C(=O)NS(=O)(=O)c4ccc(N[C@H](CCN5CCOCC5)CSc5ccccc5)c(S(=O)(=O)C(F)(F)F)c4)cc3)CC2)C1 [Navitoclax] (partner 0.5 µM)",
    "target-or-test-system": "Calu-6",
    "endpoint-result": 0.739
  },
  {
    "compound": "CC(C)Oc1cc(Nc2nc(N[C@@H](C)c3ccc(F)cn3)ncc2Cl)n[nH]1 [AZ23] + C[C@@H](Oc1cc(-c2cnn(C3CCNCC3)c2)cnc1N)c1c(Cl)ccc(F)c1Cl [Crizotinib] (partner 1 µM)",
    "target-or-test-system": "Calu-6",
    "endpoint-result": 0.974
  }
]
